System: contraction reaction of the isolated ileum caused by histamine
experimentalProtocol: Antihistamic effects: inhibition of histamine-induced contraction of isolated guinea pig ileum (Magnus bath)
Type: cell-based, Hartley male guinea pig
testParameters: Cavia porcellus, histamine 3×10^-7 mole, test compound for 3 minutes before histamine, 30° C., read-out: antihistamic action (50% inhibition concentration: IC50 value)
observationType: IC50 (nM)
Give your result in nM as a bare value.

Q) Report IC50 for O=C(O)COCCN1CCN(C(c2ccccc2)c2ccc(Cl)cc2)CC1 (stereo not shown) please.
A) 2400
